B1: glmS ribozyme (parent)
chain: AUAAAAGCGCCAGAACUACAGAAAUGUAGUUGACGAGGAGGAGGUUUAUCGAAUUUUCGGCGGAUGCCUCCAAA

- Variants of: B1
- assay_name: KM; higher = weaker cofactor use; RNA array
- condition_description: with glucosamine-6-phosphate
Kindly return yes if reported KM is no lower than 2000 µM; return no if it is lower.

Would you please look over these solved cases?
variant_label: U46C C67G
class_name: no
//
variant_label: A14U U46C
class_name: no

query: Please indicate if the recorded KM for U55C C71A meets or exceeds 2000 µM.
result: yes

query: Please indicate if the recorded KM for G13C C70U meets or exceeds 2000 µM.
result: no

query: Please indicate if the recorded KM for G37A U47G meets or exceeds 2000 µM.
result: no

query: Please indicate if the recorded KM for C11U A53C meets or exceeds 2000 µM.
result: yes

query: Please indicate if the recorded KM for A52U C68U meets or exceeds 2000 µM.
result: yes

query: Please indicate if the recorded KM for U31A C68U meets or exceeds 2000 µM.
result: yes
